Settings: mouse, in vivo
Parameter (AUC0-t)prodrug/(AUC0-t)prototype drug: see the listing below.
Lab note: jot down the number only; don't add units.

Name the reported (AUC0-t)prodrug/(AUC0-t)prototype drug value associated with the molecule CCSS/C(CCOC(=O)CCC(=O)OC1CCC(N(C)C(=O)c2ccc3nonc3c2)CC1)=C(/C)N(C)C=O (stereo not drawn)
1.55

Name the reported (AUC0-t)prodrug/(AUC0-t)prototype drug value associated with the molecule C/C(=C(\CCOC(=O)CCCC(=O)OC1CCC(N(C)C(=O)c2ccc3nonc3c2)CC1)SSC(C)C)N(C)C=O (stereo not drawn)
1.92

Name the reported (AUC0-t)prodrug/(AUC0-t)prototype drug value associated with the molecule CCCCCSS/C(CCOC(=O)CCCC(=O)OC1CCC(N(C)C(=O)c2ccc3nonc3c2)CC1)=C(/C)N(C)C=O (stereo not drawn)
1.98

Name the reported (AUC0-t)prodrug/(AUC0-t)prototype drug value associated with the molecule CCCN(C=O)/C(C)=C(/CCOC(=O)CCCC(=O)OC1CCC(N(C)C(=O)c2ccc3nonc3c2)CC1)SSCC (stereo not drawn)
1.70

Name the reported (AUC0-t)prodrug/(AUC0-t)prototype drug value associated with the molecule C/C(=C(\CCOC(=O)CCCC(=O)OC1CCC(N(C)C(=O)c2ccc3nonc3c2)CC1)SSCc1ccccc1)N(C)C=O (stereo not drawn)
1.86
